- test-summary: in vivo
- condition-info: male, beagle, dog, in vivo, po, 0.125 g/kg
property: AUC(0-t) (ng·h/mL)

[[record]]
compound = "O=C(CC(O)(CC(=O)OCc1ccc(O[C@@H]2O[C@H](CO)[C@@H](O)[C@H](O)[C@H]2O)cc1)C(=O)O)OCc1ccc(O[C@@H]2O[C@H](CO)[C@@H](O)[C@H](O)[C@H]2O)cc1"
property = "AUC(0-t)"
endpoint_result = 349

[[record]]
compound = "O=C(O)CC(O)(CC(=O)OCc1ccc(OC2OC(CO)C(O)C(O)C2O)cc1)C(=O)OCc1ccc(OC2OC(CO)C(O)C(O)C2O)cc1 (stereo not shown)"
property = "AUC(0-t)"
endpoint_result = 1550

[[record]]
compound = "OCc1ccc(O[C@@H]2O[C@H](CO)[C@@H](O)[C@H](O)[C@H]2O)cc1"
property = "AUC(0-t)"
endpoint_result = 4890

[[record]]
compound = "O=C(CC(O)(CC(=O)OCc1ccc(OC2OC(CO)C(O)C(O)C2O)cc1)C(=O)OCc1ccc(OC2OC(CO)C(O)C(O)C2O)cc1)OCc1ccc(OC2OC(CO)C(O)C(O)C2O)cc1 (stereo not shown)"
property = "AUC(0-t)"
endpoint_result = 868

